target: ALK^wt (anaplastic lymphoma kinase) (Homo sapiens); test: enzyme inhibition assay with fluorescent assay kit; type: biochemical
Sequence (Q9UM73 19-1620): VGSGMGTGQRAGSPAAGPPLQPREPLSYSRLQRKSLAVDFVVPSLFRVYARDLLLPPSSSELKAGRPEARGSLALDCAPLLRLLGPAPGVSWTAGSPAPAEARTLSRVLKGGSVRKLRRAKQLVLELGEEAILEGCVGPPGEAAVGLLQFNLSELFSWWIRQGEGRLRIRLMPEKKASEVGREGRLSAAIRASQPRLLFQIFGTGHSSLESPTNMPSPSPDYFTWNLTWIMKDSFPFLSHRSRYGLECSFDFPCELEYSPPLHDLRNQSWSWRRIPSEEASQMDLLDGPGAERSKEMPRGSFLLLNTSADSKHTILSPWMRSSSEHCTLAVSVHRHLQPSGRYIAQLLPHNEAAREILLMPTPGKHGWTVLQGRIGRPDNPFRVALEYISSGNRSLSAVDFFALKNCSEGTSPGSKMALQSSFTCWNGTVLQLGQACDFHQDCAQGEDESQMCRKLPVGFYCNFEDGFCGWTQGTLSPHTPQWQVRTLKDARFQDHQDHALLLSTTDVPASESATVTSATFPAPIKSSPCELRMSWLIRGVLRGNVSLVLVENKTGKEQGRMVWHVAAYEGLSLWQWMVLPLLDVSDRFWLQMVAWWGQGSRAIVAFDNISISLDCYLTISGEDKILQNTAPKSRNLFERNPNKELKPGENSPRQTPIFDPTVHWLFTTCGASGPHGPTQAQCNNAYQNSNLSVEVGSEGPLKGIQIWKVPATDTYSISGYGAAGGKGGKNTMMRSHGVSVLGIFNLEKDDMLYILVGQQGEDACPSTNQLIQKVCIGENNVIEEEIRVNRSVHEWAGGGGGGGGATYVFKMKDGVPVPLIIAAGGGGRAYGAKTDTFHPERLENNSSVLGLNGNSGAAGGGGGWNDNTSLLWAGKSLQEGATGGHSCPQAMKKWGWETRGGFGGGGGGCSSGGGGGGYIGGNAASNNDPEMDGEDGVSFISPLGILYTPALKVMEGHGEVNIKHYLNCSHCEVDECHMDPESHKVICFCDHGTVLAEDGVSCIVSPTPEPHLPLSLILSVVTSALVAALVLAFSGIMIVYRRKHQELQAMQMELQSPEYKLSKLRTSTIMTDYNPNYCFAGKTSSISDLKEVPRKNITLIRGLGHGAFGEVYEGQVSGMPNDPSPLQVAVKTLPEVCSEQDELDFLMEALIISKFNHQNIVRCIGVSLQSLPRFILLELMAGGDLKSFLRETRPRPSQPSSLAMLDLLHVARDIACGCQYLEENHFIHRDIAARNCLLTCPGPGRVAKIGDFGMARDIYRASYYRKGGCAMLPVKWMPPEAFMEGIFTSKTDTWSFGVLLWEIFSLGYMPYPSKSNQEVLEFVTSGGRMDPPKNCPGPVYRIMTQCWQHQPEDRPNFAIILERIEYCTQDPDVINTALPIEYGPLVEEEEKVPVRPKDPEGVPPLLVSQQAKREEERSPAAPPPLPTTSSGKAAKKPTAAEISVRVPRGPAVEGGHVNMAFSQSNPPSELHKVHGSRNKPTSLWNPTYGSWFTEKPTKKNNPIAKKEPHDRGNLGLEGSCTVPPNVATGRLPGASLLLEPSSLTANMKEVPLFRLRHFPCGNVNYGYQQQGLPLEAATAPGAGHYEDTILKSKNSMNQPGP

{"compound": "CC(C)S(=O)(=O)c1ccccc1Nc1nc(Nc2ccc(C(=O)Nc3ccccc3N)cc2)ncc1Cl [12a]", "quantity_unit": "nM", "IC50": 9.5}
